Test system: MS2 coat protein
Method notes: apparent KD of MS2 coat protein; designed switch direction (-1 OFF switch, 1 ON switch): 1; higher = weaker reporter binding
Condition description: Eterna round: R95; input ligand: none
Use 100 nM as the dividing line for apparent KD of MS2 coat protein, with the line itself on the class 1 side and lower values as class 0.

Please review the following examples before continuing.
- Sequence chain: "UGGUAACAUGAGGAUCACCCAUGUCAAAUGAAUCGAGGAUAUGGGAAGGAAGAAGAGAAACUAGAAGGCGAAGUUG [Altered State 1-5 - Jieux - Same State 1] (puzzle: Same State 1)"
  Label class: "class 1"
- Sequence chain: "GACAGGCAAGCUUUUUUCUCGUAGUGUAGACAUGAGGAUCACCCAUGUGCUCGCCCUGGAUCUUUGGAUCGCAGAAA [Laaxeso] (puzzle: Sensor for hsa-mir-208a)"
  Label class: "class 0"
- Sequence chain: "UCUUGGUUUUUGCUCGUUUUUUGUGUUGAACAUGAGGAUCACCCAUGUAUUGUACGGUCCAAUUUAAUAAUAGUCCG [JMF 65] (puzzle: Sensor for hsa-mir-208a)"
  Label class: "class 0"
- Sequence chain: "GGUCCAGCCUGAGCUGGACAAAAGCAUGUACAUGAGGAUCACCCAUGUCAUGUACAAGCUUUUUGCUCGUCUUAAUA [Mat - hsa-mir-208a - 89] (puzzle: Sensor for hsa-mir-208a)"
  Label class: "class 1"
- Sequence chain: "AGUCCAGCCUGAGCUGGACAAAAGCAUGUACAUGAGGAUCACCCAUGUCAUGUACAAGCUUUUUGCUCGUAAUAAUA [Mat - hsa-mir-208a - Mod of JL - D31] (puzzle: Sensor for hsa-mir-208a)"
  Label class: "class 1"

With those in mind, consider the next sequence.
Confirm if apparent KD of MS2 coat protein reported for the sequence ACAAGCUUUUCUGUAUUGAAAGGUGGGAUACAUGAGGAUCACCCAUGUUUUUUUGUUUAUAUUUGUCCUCGUCUUAU [JR_SHM208A_Sub087] (puzzle: Sensor for hsa-mir-208a) is 100 nM or above.
class 0
